Test system: JNK2;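 note: KINOMEscan kinase panel screen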
Construct: gene MAPK9
Details: concentration: 1 μM, replicates: in singlicate; n = 1
measureName: %Inh (%)
Please respond with the number in % and leave the unit unwritten.

Answered cases to consult:
stdin: Quick one: %Inh of Cc1ccc(-c2cc(-c3c[nH]nc3-c3ccccn3)ccn2)cc1 [GW684088] ?
stdout: 36

stdin: Quick one: %Inh of Fc1cccc(COc2nnc(-c3ccc4c(c3)CCO4)o2)c1 ?
stdout: 0

stdin: Quick one: %Inh of CS(=O)(=O)c1ccc(-c2nc3n(c2-c2ccncc2)CCC3)cc1 [SKF-105942] ?
stdout: 16

stdin: Quick one: %Inh of Cc1cccc(-c2nc(Nc3ccncc3)c3ccccc3n2)n1 [GW855857] ?
stdout: 6

stdin: Quick one: %Inh of COc1cc(Nc2nccc(N3CCC(NC(=O)Nc4cc(C)ccc4C)C3)n2)cc(OC)c1OC (centres unmarked) [GSK1379762] ?
stdout: 2

stdin: Quick one: %Inh of NC(=O)c1nnc2ccccc2c1N ?
stdout: 17

stdin: Quick one: %Inh of COc1ccc(Nc2nccc(-c3cccc(NC(=O)c4cc5cc(F)ccc5[nH]4)c3)n2)cc1 [GSK1229782] ?
stdout: 34

stdin: Quick one: %Inh of CC1=C(C(=O)Nc2cc3cn[nH]c3cc2F)C(c2ccc(C(F)(F)F)cc2)CC(=O)N1 (centres unmarked) [GSK429286] ?
stdout: 25

stdin: Quick one: %Inh of Cc1ccccc1-n1cnc2c(N)ncnc21 [SKF-97510] ?
stdout: 0

stdin: Quick one: %Inh of Fc1cc(Cl)ccc1Nc1ccnc2cc(I)ccc12 [GW551191] ?
stdout: 29

Next:
stdin: Quick one: %Inh of Cc1cccc(-c2cc(Nc3ccncc3)c3ccccc3n2)n1 [GSK223675] ?
stdout: 27

stdin: Quick one: %Inh of O=S(=O)(c1ccc(-c2ccnc3[nH]ccc23)cc1)N1CCCC1 [GSK846226] ?
stdout: 24

stdin: Quick one: %Inh of Nc1nc(-c2nccs2)c(-c2ccnc3ccccc23)s1 [GW693542] ?
stdout: 22

stdin: Quick one: %Inh of CCn1c(-c2ccccn2)nc2cnccc21 [SB-736398] ?
stdout: 19

stdin: Quick one: %Inh of Cc1ccc(C(=O)Nc2ccc(Nc3ccnc4cc(-c5ccccn5)ccc34)cc2O)cc1.Cl [GW440146] ?
stdout: 15

stdin: Quick one: %Inh of CC(=O)Nc1nc2cnc(Nc3cc(NC(=O)c4cccc(CCC#N)c4)ccc3C)nc2s1 ?
stdout: 0

stdin: Quick one: %Inh of O=c1cc(N2CCOCC2)nc2n(Cc3cccc(Cl)c3Cl)ccn12 [GSK2286295] ?
stdout: 30

stdin: Quick one: %Inh of CC(C)(C)c1ccc(C(=O)Nc2cn3cc(-c4cccnc4)ccc3n2)cc1 ?
stdout: 0

stdin: Quick one: %Inh of COc1ccc2nc(-c3cccc(C)n3)nc(Nc3ccncc3)c2c1 [GSK204919] ?
stdout: 60

stdin: Quick one: %Inh of Cc1nnc(-c2ccc3occ(-c4ccc(S(C)=O)cc4)c3c2)[nH]1 (centres unmarked) ?
stdout: 26

stdin: Quick one: %Inh of Cc1cccc(-c2nc(C)cc(Nc3ccncc3)n2)n1 [GSK257997] ?
stdout: 43

stdin: Quick one: %Inh of Cl.Oc1ccc(-c2nc(-c3ccccc3)[nH]c2-c2ccncc2)cc1 [SB-428218] ?
stdout: 0

stdin: Quick one: %Inh of COc1cc2nccc(Nc3ccc(NC(=O)c4ccc(C)cc4)c(O)c3)c2cc1OC.Cl [GW440132] ?
stdout: 29

stdin: Quick one: %Inh of Cc1ccc(NC(=O)Nc2cc(C(C)(C)C)nn2-c2ccccc2)cc1 [GSK1014915] ?
stdout: 39

stdin: Quick one: %Inh of Cn1cncc1-c1ccc2ncnc(Nc3ccc(OCc4ccccc4)cc3)c2c1 [GW320571] ?
stdout: 6

stdin: Quick one: %Inh of COc1cc2ncn(-c3cc(OCC4CCCO4)c(C(N)=O)s3)c2cc1OC (centres unmarked) [GSK204607] ?
stdout: 17

stdin: Quick one: %Inh of CN(C)CCN(C)C(=O)c1cc(-c2ccncc2)c(-c2ccc(Cl)c(O)c2)o1.Cl.Cl [SB-710397] ?
stdout: 29

stdin: Quick one: %Inh of Cc1cc(NCC(c2ccccc2)c2ccccc2)nc(NCc2ccc(C(F)(F)F)cc2)n1 [GW497681] ?
stdout: 0

stdin: Quick one: %Inh of COc1ccccc1CNC(=O)c1cc(C(=O)c2ccccc2C)c[nH]1 [GSK364507] ?
stdout: 9
